system: P12-Ichikawa; assay: cell viability relative to DMSO control; higher = less cytotoxic; settings: RPMI 5 mM glucose + 10% dialyzed FBS; 48 h; 1.71 µM
Measured cell viability accompanies every entry in the list below.

| chemical-structure | cell viability [%] |
| --- | --- |
| COc1ccccc1[C@H](c1cccc2ccccc12)[C@@](C)(C#N)C(=O)N1CCC(c2cccc(C(F)(F)F)c2)CC1 | 112 |
| CCc1ccc(OCc2ccccc2C(=O)Nc2ccc3nc(C)cc(N)c3c2)cc1 | 121 |
| CCCCCCNC(=O)N1\C=C(F)/C(=O)NC1=O | 121 |

----------
Measured cell viability accompanies every entry in the list below.
test system: P12-Ichikawa; assay: cell viability relative to DMSO control; higher = less cytotoxic; conditions: HPLM + 10% dialyzed FBS; 48 h; 0.0632 µM
measured-property: cell viability (%)

| molecule | number |
| --- | --- |
| CCCCCNC(=N)N/N=C/c1c[nH]c2ccc(OC)cc12 | 126 |
| CCCCCCNC(=O)N1\C=C(F)/C(=O)NC1=O | 121 |
| CNC[C@H](O)[C@@H](O)[C@H](O)[C@H](O)CO | 123 |
| Cc1cc(Nc2ncc3c(n2)N(C)C(=O)N(c2cc(NC(=O)c4cccc(C(F)(F)F)c4)ccc2C)C3)n(C)n1 | 119 |
| CC(C)(N)c1ccc(-c2nc3ccccc3nc2-c2ccccc2)cc1 | 23.2 |
| COCCn1c2c([n+](Cc3cnccn3)c1C)C(=O)c1ccccc1C2=O | 104 |
| Oc1ccc(OCc2ccccc2)cc1 | 119 |
| CC1(C)CC\C2=C(/O1)C3=C(C=CC=C3)C(=O)C2=O | 106 |
| Cc1nc(-c2ccc(OCC(C)C)c(C#N)c2)sc1C(=O)O | 119 |
| OC[C@H]1O[C@H](C[C@@H]1O)N2/C=C(C(=O)NC2=O)/C(F)(F)F | 117 |
| CC[C@H]1OC(=O)[C@H](C)[C@@H](O[C@H]2C[C@@](C)(OC)[C@@H](O)[C@H](C)O2)[C@H](C)[C@@H](O[C@@H]2O[C@H](C)C[C@H](N(C)C)[C@H]2O)[C@](C)(OC)C[C@@H](C)C(=O)[C@H](C)[C@@H](O)[C@]1(C)O | 103 |
| CCc1ccc(OCc2ccccc2C(=O)Nc2ccc3nc(C)cc(N)c3c2)cc1 | 118 |
| C[C@]1(O)CC(C1)C2=NC(=C3[N]2C=CN=C3N)C4=CC5=C(C=C4)C=CC(=N5)C6=CC=CC=C6 (stereo not drawn) | 107 |
